Taken from ChEMBL document CHEMBL1150936.

Assay: Antioxidant activity assessed as peroxide value relative to control
Format: functional
# key: entry, value: Activity (milliequivalent/kg)
Just the number, please.

Worked cases, answers included:
- SAMPLE SMILES: "Cc1c(C)c2c(c(C)c1O)CC[C@@](C)(CCC[C@H](C)CCC[C@H](C)CCCC(C)C)O2"
  Activity (milliequivalent/kg): 0.062
- SAMPLE SMILES: "Oc1cc2cc[nH]c2cc1Br"
  Activity (milliequivalent/kg): 0.036

[Q] Looking for the measured Activity (milliequivalent/kg) of `Cc1cc(C(C)(C)C)c(O)c(C(C)(C)C)c1` , can you help?
[A] 0.031

[Q] Looking for the measured Activity (milliequivalent/kg) of `Oc1c(Br)cc2[nH]ccc2c1O` , can you help?
[A] 0.194

[Q] Looking for the measured Activity (milliequivalent/kg) of `Oc1cc(Br)c(O)c2[nH]ccc12` , can you help?
[A] 0.106
